# Test target: PARN1-430 (Homo sapiens)
# Construct: expression of the C-terminal truncated protein (1-430 aa of PARN) was soluble; His tag (from the pCold I vector)
# Sequence (O95453 1-430): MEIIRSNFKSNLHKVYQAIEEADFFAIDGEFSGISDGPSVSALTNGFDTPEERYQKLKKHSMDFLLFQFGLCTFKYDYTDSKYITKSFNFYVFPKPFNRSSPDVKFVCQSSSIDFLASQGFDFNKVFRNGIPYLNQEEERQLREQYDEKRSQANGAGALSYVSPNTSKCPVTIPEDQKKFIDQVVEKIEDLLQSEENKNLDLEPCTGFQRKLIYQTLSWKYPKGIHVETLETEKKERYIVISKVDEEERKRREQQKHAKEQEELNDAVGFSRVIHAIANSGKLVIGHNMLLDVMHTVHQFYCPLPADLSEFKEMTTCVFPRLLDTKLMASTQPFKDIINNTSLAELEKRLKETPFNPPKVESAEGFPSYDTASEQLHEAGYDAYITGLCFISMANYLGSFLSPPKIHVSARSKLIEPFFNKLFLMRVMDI
# Test details: Inhibition fluorescence assay (FAM-RNA / BHQ quencher deadenylase assay)
# Conditions used: GNF-7 on PARN1-430, 10 min pre-treatment, non-linear fit
Result type: pIC50
Formally, pIC50 is defined as -log10 of the concentration c, with c in mol/L.

I have this compound here, Cc1ccc(Nc2ncc3c(n2)N(C)C(=O)N(c2cc(NC(=O)c4cccc(C(F)(F)F)c4)ccc2C)C3)cn1 [GNF-7] , and I need its recorded pIC50. 4.46

###

# Test target: PARN1-430 (Homo sapiens)
# Construct: expression of the C-terminal truncated protein (1-430 aa of PARN) was soluble; His tag (from the pCold I vector); made in house; host or cells: E. coli Rosetta 2 DE
# Test details: Inhibition fluorescence assay (FAM-RNA / BHQ quencher deadenylase assay)
# Assay type: biochemical
# Conditions used: computational docking compounds; fluorescence assay and gels; PARN1-430 pretreated with drug 10 min
Result type: PARN inhibitor in vitro

Here's what some known entries look like.
Compound	PARN inhibitor in vitro
NC(=O)c1ncn([C@@H]2O[C@H](CO)[C@@H](O)[C@H]2O)c1N	No
COc1nc(N)c2ncn([C@@H]3O[C@H](CO)[C@@H](O)[C@H]3O)c2n1	Yes
Nc1ncnc2c1ncn2[C@H]1O[C@@H](CO)[C@H](O)[C@@H]1O	No
CNC(=O)c1cnn(-c2nc(N)c3ncn([C@@H]4O[C@H](CO)[C@@H](O)[C@H]4O)c3n2)c1	Yes
Nc1ncnc2c1c(I)cn2C1OC(CO)C(O)C1O (stereo not shown)	No
CCn1nc(C2CCN(C(=O)CCO)CC2)nc1-c1cnc(N)c(-c2nnc(C(C)(C)C)o2)n1	No

Name the reported PARN inhibitor in vitro value associated with the compound `Cc1ccc(Nc2ncc3c(n2)N(C)C(=O)N(c2cc(NC(=O)c4cccc(C(F)(F)F)c4)ccc2C)C3)cn1` Yes

Please do the same for `Nc1nc(Cl)nc2c1ncn2[C@H]1C[C@H](O)[C@@H](CO)O1` as well. Yes

// query: `Nc1cccc(-c2cc3c(Oc4cccc(O)c4)ncnc3[nH]2)c1` No

Again, but for `Nc1ncnc2c1ccn2[C@@H]1O[C@H](CO)[C@@H](O)[C@H]1O` Yes

Check `Nc1ncnc2c1c(Br)cn2[C@@H]1O[C@H](CO)[C@@H](O)[C@H]1O` too. No

Can you check `Nc1nc(Cl)nc2c1ncn2[C@@H]1O[C@H](CO)[C@@H](O)[C@@H]1F` next? No

Would you kindly repeat that for `Nc1ncnc2c1ncn2[C@@H]1O[C@H](CO)[C@@H](O)[C@@H]1O` ? No
